System: MycCap cells
test_details: Cell viability of MycCap cells
Assay type: cell-based
measurement_setup: Mus musculus, Myc-CaP
quantity_name: IC50 (µM)

molecule: C#CCOc1ccc(COc2ccc(-c3cc(C(F)(F)F)n[nH]3)c(O)c2-c2cc(C(F)(F)F)cc(C(F)(F)F)c2)cc1
reading_unit: µM
reported_measurement: 9.5

molecule: Oc1cc(OCc2ccc(Cl)cc2)ccc1-c1n[nH]cc1-c1cccc(Cl)c1
reading_unit: µM
reported_measurement: 4.3

molecule: Cc1cc(C)c(-c2c[nH]nc2-c2ccc(OCc3ccc(Cl)cc3)cc2O)c(C)c1
reading_unit: µM
reported_measurement: 7.6

molecule: Oc1cc(OCc2ccc(Cl)cc2)ccc1-c1n[nH]cc1-c1cc(C(F)(F)F)cc(C(F)(F)F)c1
reading_unit: µM
reported_measurement: 4.3

molecule: N#Cc1cncc(-c2c(OCc3ccc(Cl)cc3)ccc(-c3cc(C(F)(F)F)n[nH]3)c2O)c1
reading_unit: µM
reported_measurement: 6.8

molecule: CCCCCCOc1ccc(-c2cc(C(F)(F)F)nn2C)c(O)c1-c1cncc(C(F)(F)F)c1
reading_unit: µM
reported_measurement: 9.5

molecule: N#Cc1cccc(-c2c(OCc3ccc(Cl)cc3)ccc(-c3cc(C(F)(F)F)[nH]n3)c2O)c1
reading_unit: µM
reported_measurement: 4.3

molecule: Cn1nc(C(F)(F)F)cc1-c1ccc(OCc2ccc(Cl)cc2)c(-c2cccc(C#N)c2)c1O
reading_unit: µM
reported_measurement: 2.5

molecule: CC(C)CCOc1ccc(-c2cc(C(F)(F)F)nn2C)c(O)c1-c1cncc(C(F)(F)F)c1
reading_unit: µM
reported_measurement: 5

molecule: CC(CCOc1ccc(-c2cc(C(F)(F)F)n[nH]2)c(O)c1-c1cc(C(F)(F)F)cc(C(F)(F)F)c1)C(F)(F)F (stereo not drawn)
reading_unit: µM
reported_measurement: 2.6

molecule: COc1cccc(-c2c(-c3ccc(OCc4ccc(Cl)cc4)cc3O)n[nH]c2C(F)(F)F)c1
reading_unit: µM
reported_measurement: 4

molecule: CCCCOc1ccc(-c2cc(C(F)(F)F)n[nH]2)c(O)c1-c1ccc(Cl)c(C(F)(F)F)c1
reading_unit: µM
reported_measurement: 19

molecule: CCc1ccc(Oc2c(-c3ccc(OCc4cccc(Cl)c4)cc3O)n[nH]c2C(F)(F)F)cc1
reading_unit: µM
reported_measurement: 12.2

molecule: Cn1nc(C(F)(F)F)cc1-c1ccc(OCc2ccc(Cl)cc2)c(-c2ccc(Cl)c(C(F)(F)F)c2)c1O
reading_unit: µM
reported_measurement: 6.1

molecule: Oc1c(-c2cc(C(F)(F)F)[nH]n2)ccc(OCc2ccc(Cl)cc2)c1-c1cc(C(F)(F)F)cc(C(F)(F)F)c1
reading_unit: µM
reported_measurement: 4

---

Listed here: items and their measured IC50.
Tested on: MycCap cells
test_details: Cell viability of MycCap cells
Assay type: cell-based
measurement_setup: Mus musculus, Myc-CaP

compound: CCCOc1ccc(-c2cc(C(F)(F)F)n[nH]2)c(O)c1-c1cc(C(F)(F)F)cc(C(F)(F)F)c1
reading_unit: µM
IC50: 3.4
//
compound: Cn1nc(-c2ccc(OCCCNC(=O)OC(C)(C)C)c(-c3cncc(C(F)(F)F)c3)c2O)cc1C(F)(F)F
reading_unit: µM
IC50: 5.5
//
compound: CCCCCCOc1ccc(-c2cc(C(F)(F)F)nn2C)c(O)c1-c1cncc(C#N)c1
reading_unit: µM
IC50: 5.7
//
compound: CCCCCCOc1ccc(-c2cc(C(F)(F)F)n[nH]2)c(O)c1-c1cncc(C#N)c1
reading_unit: µM
IC50: 4.2
//
compound: C#CCC(N=[N+]=[N-])C(=O)Nc1ccc(COc2ccc(-c3cc(C(F)(F)F)n(C)n3)c(O)c2-c2cncc(C(F)(F)F)c2)cc1 (stereo not shown)
reading_unit: µM
IC50: 24.3
//
compound: Oc1c(-c2cc(C(F)(F)F)[nH]n2)ccc(OCc2ccc(Cl)cc2)c1-c1ccccc1Cl
reading_unit: µM
IC50: 4
//
compound: Cn1nc(C(F)(F)F)cc1-c1ccc(OCc2ccc(Cl)cc2)c(Br)c1O
reading_unit: µM
IC50: 7.8
